- Tgt: T1, human glucose-dependent insulinotropic polypeptide receptor (human, UniProt P48546 22-466)
- T1 sequence (looked up): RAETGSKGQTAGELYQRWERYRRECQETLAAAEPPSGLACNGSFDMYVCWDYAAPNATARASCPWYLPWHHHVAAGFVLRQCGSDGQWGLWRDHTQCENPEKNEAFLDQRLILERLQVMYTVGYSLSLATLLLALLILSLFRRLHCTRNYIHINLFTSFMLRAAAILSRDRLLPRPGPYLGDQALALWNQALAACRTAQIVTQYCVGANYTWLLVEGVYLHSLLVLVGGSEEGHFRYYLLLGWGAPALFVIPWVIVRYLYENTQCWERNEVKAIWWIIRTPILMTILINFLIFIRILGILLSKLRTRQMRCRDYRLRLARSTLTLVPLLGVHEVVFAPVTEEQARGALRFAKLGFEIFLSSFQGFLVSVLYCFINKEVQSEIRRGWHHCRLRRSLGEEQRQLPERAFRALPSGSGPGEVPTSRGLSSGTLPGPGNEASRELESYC
- Test Name: cell-based or functional assay
Where no end group is shown, it is not given here. [ ]: non-standard residue; d: D form. Aib = CC(C)(N)C(=O)O
# note: exactly 8 pM is not below, so it is Not satisfied; use Satisfied for hGIPR CRE Luc EC50 (pM) strictly under it

Binder: Y[Aib]QGTFTSDYSIYLDKKAA[Aib]EFVNWLLAGGPSSGAPPPS-NH2 (not fully specified (residue 17); printed as Y-Aib-QGTFTSDYSIYLDK-K[2-[2-[2-[[2-[2-[2-[[(4S)-4-carboxy-4-(19-carboxynonadecanoylamino)butanoyl]amino]ethoxy]ethoxy]acetyl]amino]ethoxy]ethoxy]acetyl]-AA-Aib-EFVNWLLAGGPSSGAPPPS-NH2) [Compound No. 9]
Class: Not satisfied

Binder: H[Aib]HGTFTSDYSIYLEKQAA[Aib]EFVQWLLEGGPSSGAPPPS-NH2 (not fully specified (residue 16); printed as H-Aib-HGTFTSDYSIYLE-K[(2S)-2-amino-6-[[(2S)-2-amino-6-[[(4S)-4-carboxy-4-(19-carboxynonadecanoylamino)butanoyl]amino]hexanoyl]amino]hexanoyl]-QAA-Aib-EFVQWLLEGGPSSGAPPPS-NH2) [Compound No. 22]
Class: Satisfied

Binder: Y[Aib]QGTFTSDYSIYLEKQAA[Aib]EFVNWLLAGGPSSGAPPPS-NH2 (not fully specified (residue 16); printed as Y-Aib-QGTFTSDYSIYLE-K[2-[2-[2-[[2-[2-[2-[[(4S)-4-carboxy-4-(19-carboxynonadecanoylamino)butanoyl]amino]ethoxy]ethoxy]acetyl]amino]ethoxy]ethoxy]acetyl]-QAA-Aib-EFVNWLLAGGPSSGAPPPS-NH2) [Compound No. 15]
Class: Satisfied

Binder: Y[Aib]QGTFTSDYSIYLDKKAA[Aib]EFVNWLLAGGPSSGAPPPS-NH2 (not fully specified (residue 17); printed as Y-Aib-QGTFTSDYSIYLDK-K[2-[2-[2-[[2-[2-[2-[[(4S)-4-carboxy-4-[[4-[(19-carboxynonadecanoylamino)methyl]cyclohexanecarbonyl]amino]butanoyl]amino]ethoxy]ethoxy]acetyl]amino]ethoxy]ethoxy]acetyl]-AA-Aib-EFVNWLLAGGPSSGAPPPS-NH2) [Compound No. 10]
Class: Not satisfied

The origin of these recorded values is patent US20230391845A1.
